# Tested on: Jurkat cells
# ASSAY OVERVIEW: Dose-response of doxorubicin on Jurkat cells cultured on droplet microarrays (DMA) with different surfaces or in microtiter plates; viability by Calcein AM / Propidium Iodide staining
# Assay type: cell-based
# MEASUREMENT CONTEXT: Homo sapiens, 24 h, Surface: Non-polymer DMA (without coating), 100 nL droplets, 100 cells per droplet, 24 hours
ENDPOINT LABEL: IC50
Kindly format the answer as number then unit.

**Q:** IC50 lookup needed for "COc1cccc2c1C(=O)c1c(O)c3c(c(O)c1C2=O)C[C@@](O)(C(=O)CO)C[C@@H]3O[C@H]1C[C@H](N)[C@H](O)[C@H](C)O1" , thanks.
**A:** 190 nM
